Reported composite z-score values for a set of compounds
- System: Noggin (protein binding on small-molecule microarray)
- ASSAY_DETAILS: Noggin binders on small-molecule microarray, primary screen, biochemical, 635/667 nm fluorescence (AID 1095);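 further: score merges 667 nm feature fluorescence with signal to noise over triplicate slides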
- SETUP_CONDITIONS: 635 nm fluorescence, higher = more signal
Please reply with the number alone, leaving off any unit.

Answered examples (2):
CCOC(=O)C[C@H]1[C@H](OC(=O)Cc2ccc3c(c2)OCO3)[C@@H](NC(=O)c2ccc3ccccc3c2)c2cc(OCCCO)ccc2N1C(=O)Cc1ccc(OC)cc1 :: 0.233
C[C@H]1C2[C@H](Cc3ccccc3)NC(=O)[C@]23C(=O)N[C@H](Cc2ccccc2)C(=O)N[C@@H](Cc2ccccc2)C(=O)NC/C=C\C/C=C/C3[C@@H]2O[C@]12C (stereo partly drawn) :: -0.152

Now for another entry.
State, in one line, measured composite z-score of C=CCC(OC(C)=O)[C@@H]1[C@@H](N(Cc2cc3ccccc3o2)C(=O)Cc2ccc(F)cc2)c2cc(OCCCO)ccc2N1C(=O)c1ccc(-c2ccccc2)cc1 (stereo partly drawn)
-0.737

----------
- ASSAY_DETAILS: small-molecule microarray binders of probe aCHRDL2, primary screen, biochemical, biotinylated probe, 635/667 nm fluorescence (AID 1100)
- SETUP_CONDITIONS: higher = more signal
Mark N for composite z-score values under -0.1, and Y for everything at or above.

Study these solved cases before continuing.
O=C/C=C/c1ccc(/C=C/c2ccccc2)cc1 :: Y
COc1ccc([Si](C)(C)[C@H]2[C@H](CC(=O)N(CCO)Cc3ccccc3)O[C@@]3(C(=O)N(C)c4ccccc43)[C@@H]2C)cc1 :: N
COc1ccc(-c2cc3c(c(-c4ccccc4)n2)[Si](C(C)C)(C(C)C)O[C@H]3c2ccccc2)cn1 :: N
COC(=O)[C@@]1(Cc2ccccc2N=[N+]=[N-])N=C(c2ccc(OCCCO)cc2)O[C@H]1c1ccccc1CN=[N+]=[N-] :: Y
COCCOC(=O)N1C(=O)[C@@]2(c3ccccc31)[C@H](C(=O)N1CCc3cc(OC)c(OC)cc3C1)[C@H]1C(=O)O[C@H](c3ccccc3)[C@H](c3ccccc3)N1[C@@H]2c1ccccc1OCCO :: Y
O=C(O)[C@@H]1Cc2c([nH]c3ccccc23)[C@@H](c2ccccc2)N1 :: N

Exam item: decide whether the reported composite z-score for C=CCC(OC(C)=O)[C@@H]1[C@@H](N(Cc2ccc(-c3ccccc3)cc2)C(=O)c2ccc(C)cc2)c2cc(OCCCO)ccc2N1C(=O)c1ccc(-c2ccccc2)cc1 (some centres not stated) is at least -0.1.
Y

----------
Reported composite z-score values for a set of molecules
- TESTED_SYSTEM: Torsin-1A (Homo sapiens) (UniProt O14656)
- Sequence (O14656 whole entry, looked up): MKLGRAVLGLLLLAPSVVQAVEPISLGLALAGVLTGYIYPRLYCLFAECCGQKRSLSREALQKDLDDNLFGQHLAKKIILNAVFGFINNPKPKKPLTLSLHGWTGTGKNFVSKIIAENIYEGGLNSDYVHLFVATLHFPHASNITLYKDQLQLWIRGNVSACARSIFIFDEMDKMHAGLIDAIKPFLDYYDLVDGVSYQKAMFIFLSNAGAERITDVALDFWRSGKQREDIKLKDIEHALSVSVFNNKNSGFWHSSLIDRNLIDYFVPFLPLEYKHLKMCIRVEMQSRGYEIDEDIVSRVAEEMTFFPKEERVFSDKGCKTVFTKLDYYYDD
- ASSAY_DETAILS: small-molecule binders of mutant TOR1A in lysate, primary screen, cell lysate, small-molecule microarray, COS7 lysate, 635/667 nm fluorescence (AID 1150);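 further: score pools 667 nm emission and signal to noise measuring lysate protein binding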
- SETUP_CONDITIONS: COS7 hTOR1A mutant lysate, 635 nm fluorescence, higher = more signal

Some solved cases for reference:
COCCOC(=O)N1C(=O)[C@@]2(c3cc(C#CC4=CCCCC4)ccc31)[C@H](C(=O)NC[C@H](O)c1ccccc1)[C@H]1C(=O)O[C@H](c3ccccc3)[C@H](c3ccccc3)N1[C@@H]2c1ccc(OCCO)cc1 :: 0.0642
C=CCC1=C[C@H]2[C@H]([C@@H]3C=C[C@]2(CC=C)C(=O)[C@]32CO2)[C@@]2(CO2)C1=O :: -0.0031
CCC(=O)[C@]12O[C@@]3([C@@H]4C(=O)OCC[C@@H]41)N(Cc1ccccc1)C(C)=C(C(=O)OC)[C@@H](c1ccccc1)N3C2=O :: -0.296
CC/C=C/C(=O)N(C[C@@H]1CCCO1)[C@@H]1CC(C(=O)NCCO)=C[C@H](Oc2c(I)cc(CO)cc2OC)[C@H]1O :: 0.267

Indicate its recorded composite z-score; the molecule in question is `C=CC[C@]1(C(=O)OC)N=C(c2ccc(OCCCO)cc2)O[C@H]1c1ccccc1CN=[N+]=[N-]`
-0.0021

Quote composite z-score reported for O=C1NC(=O)C2C1C=CC(C(O)C=Cc1ccc([N+](=O)[O-])cc1)N2Nc1ccccn1 (configuration not stated) please.
0.13

Check the records and state composite z-score for `CCCC=C(CCC)[C@@H](NS(=O)(=O)c1ccc(-c2ccccc2)cc1)c1ccc(C(=O)OC)cc1`
-0.383

----------
Entries and their composite z-score
- ASSAY_DETAILS: small-molecule microarray binders of probe aNog, primary screen, biochemical, biotinylated probe, 635/667 nm fluorescence (AID 1115);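 further: probe is biotinylated aNog protein used at 0.15 µg/mL for 1 h at 4 C; z-score combines 667 nm fluorescence of each spot with its signal to noise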
- SETUP_CONDITIONS: higher = more signal

C[C@@H]1CC[C@H]2C(=O)N3CCC[C@H]3C(=O)N2[C@H]1c1ccc(Br)cc1 :: -0.307

Specify reported composite z-score for the compound shown: `COCCOC(=O)N1C(=O)[C@@]2(c3ccccc31)[C@H](C(=O)N1CCc3cc(OC)c(OC)cc3C1)[C@H]1C(=O)O[C@H](c3ccccc3)[C@H](c3ccccc3)N1[C@@H]2c1ccccc1OCCO`
0.185

Consider the compound CCC1=C2CN(Cc3ccccc3Br)[C@@H]([C@@H](O)Cc3ccccc3)C2C=CCC1 (some centres undefined) . State its measured composite z-score.
-0.278

Provide only the value of recorded composite z-score for `C=CCNC(=O)[C@H]1[C@@H]2C(=O)O[C@@H](c3ccccc3)[C@@H](c3ccccc3)N2[C@@H](c2ccccc2OCCO)[C@]12C(=O)N(C(=O)OCCOC)c1ccc(C#CCNC(N)=O)cc12`
0.672

Find the measured composite z-score of `COc1ccc(CCN2C(=O)[C@@]3(c4ccc([N+](=O)[O-])cc4)CC(=O)N(CC45CC6CC(CC(C6)C4)C5)[C@@H]3c3ccc(CO)cc32)cc1` and report it.
-0.476

For the compound `CO[C@@H]1COC(=O)[C@H](C)NC(=O)CC=C[C@@H](C)[C@H](OC)COC(=O)[C@H](C)NC(=O)CC=C[C@H]1C` , give its measured composite z-score value.
-0.248

----------
- ASSAY_DETAILS: splicing luciferase reporter signal modulators, primary screen, spliceosome inhibition project, cell-based, HEK293, splice +/- reporter (AID 1101);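 further: HEK293 cells carrying a splicing-competent luciferase reporter gene; test concentration not given here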
- SETUP_CONDITIONS: luminescence, 24 h, higher = more signal, called active from +8 up or from −8 down
Each record here notes measured z-score.
Number only, no unit.

Recorded z-score, per entry:
COc1cccc([C@@H]2[C@@H](C)CC[C@H]3C(=O)N4[C@H](c5cccc(OC)c5)[C@@H](C)CC[C@H]4C(=O)N23)c1 :: -1.59
COC(=O)[C@@]1(Cc2ccccc2)[C@H]2c3cc(C(=O)N4CCCC4)n(CCN4CNCC4=O)c3C[C@H]2CN1C(=O)c1ccccc1 :: 2.52
Cc1ccc([C@@H]2CC=C(C(=O)O)[C@H](c3ccccc3)N2S(=O)(=O)c2ccc(C)cc2)cc1 :: 0.0744
[N-]=[N+]=NCc1ccccc1C[C@]1(C(N)=O)N=C(c2ccc(OCCCO)cc2)O[C@H]1c1ccccc1CN=[N+]=[N-] :: -1.63
COc1ccc([Si](C)(C)[C@@H]2[C@@H](CC(=O)N(CCO)Cc3ccccc3)O[C@]3(C(=O)N(Cc4cccc(N5CCC5=O)c4)c4ccccc43)[C@H]2C)cc1 :: -0.732
C=CCC(OC(C)=O)[C@@H]1[C@@H](N(Cc2cccc3ccccc23)C(=O)Cc2ccc(F)cc2)c2cc(OCCCO)ccc2N1C(=O)Cc1ccc2ccccc2c1 (stereo not given in full) :: -0.395
CO[C@H]1COC(=O)[C@H](Cc2ccccc2)NC(=O)CC=C[C@@H](C)[C@H](OC)COC(=O)CC=C[C@@H]1C :: -0.875
C=CCNC(=O)[C@@H]1[C@H]2C(=O)O[C@H](c3ccccc3)[C@H](c3ccccc3)N2[C@H](c2ccc(OCCO)cc2)[C@@]12C(=O)N(C(=O)OCCOC)c1ccc(C#CC3(O)CCCCCC3)cc12 :: -0.929

Fill in z-score for record `COC(=O)[C@@]1(Cc2ccccc2N=[N+]=[N-])N=C(c2ccc(OCCCO)cc2)O[C@H]1c1ccccc1CN=[N+]=[N-]`
1.07

Quickly give me recorded z-score for `CCCCCCc1nc(-c2cc(C)c(OC)c(C)c2)cc2c1[Si](C(C)C)(C(C)C)O[C@H]2c1ccccc1`
0.399

Fill in reported z-score for this entry: `COC(=O)C1=C(C)N(Cc2ccccc2)c2c(C(=O)OC)c(C(=O)OC)c(C(=O)OC)c(=O)n2[C@@H]1c1ccccc1`
-0.449

# return recorded z-score for input `Cc1ccc(N2C(=O)c3ccccc3[C@@H](C(=O)NCc3ccccc3)[C@@H]2c2ccc(CO)cc2)nc1`
-1.47

Answer with reported z-score of `C=CCc1cccc([C@H]2N[C@H](C(=O)O)CC[C@@H]2C)c1`
-0.704

Answer with reported z-score of `CO[C@H]1COC(=O)CC=C[C@H](C)[C@@H](OC)COC(=O)CC=C[C@@H]1C`
-1.06

Write down z-score measured for item `C=C(COC)/C(=C/C[C@H](OC(C)=O)c1ccc(OCCO)cc1)c1cnc2ccccc2c1`
-1.48
